assay-protocol: Specific activity of purified CHI, absorbance decrease at 384 nm, hesperetin chalcone; also: unit not given here
Type: biochemical
condition-details: purified CHI in 50 mM PBS, 100 μM substrate, 25° C.
quantity-measured: Specific activity, Hesperetin chalcone
No unit in the answer, only the number.

Lookup: Check the records and state Specific activity, Hesperetin chalcone for CHI11: Chalcone isomerase from Eubacterium sp., access no. SCK02381.1 (protein, Eubacterium sp) TKNMLGFEPMRSLIYVDVAKEDYRVKLENWLYKYHIPDSISQFGPYVSKYAFYQALPVPEGGERFGAIKMQLTEHYWLANPNNIAQFDHHKALTEYFPPDVLKWQGNLPDEDFQCENVEGDEARAVKGDASKGTVPFIFAFVPVWWEEDYKGAGRTIEDGPNYRWQMVIKFPDDAKDTGDKWLRDEFIPAFVECEETTRILSSKVIKEANGCEFDRVVEMWFEGPSAWKAAVGKAAKKVRRPAWFETEDFPYLTQSYGISSIFLSDIARSDNMTQYNGYVTMR
Found: 5.8
